Tested on: NCI-H460 lung
Assay: NCI tumour cell line growth inhibition, 48 h
# maps each entry to its TGI
measurementName: TGI

> print(dat)
                                    molecule  measurementname   reported
 1  CC12C3CC4C5CC(C(C53)[C@@H]1NCc1ccccc1)C42 (stereo partly drawn)              TGI   > 100 µM
 2  O=C1c2ccccc2C(=O)c2c1oc1c2c(=O)[nH]c2ccc(Cl)cc21              TGI   0.489 µM
 3                  CC(=O)Nc1ccc(OC(C)=O)cc1              TGI    16.9 µM
 4          COc1ccc(NC(=O)C(C#N)=C(SC)SC)cc1              TGI   > 100 µM
 5  O=S(=O)(O)n1ccnc1 (tested in a mixture with another compound)              TGI   > 100 µM
 6  C#CCOC(=O)/C=C/C(=O)Oc1ccc2c(C)cc(=O)oc2c1              TGI   > 100 µM
 7  O=C1NC(=O)C(C(c2ccc([N+](=O)[O-])cc2)C2C(=O)NC(=O)NC2=O)C(=O)N1              TGI   > 100 µM
 8             CC(=O)OCCCCN1C(=O)CSc2ccccc21              TGI   > 100 µM
 9  CC(C)(CCl)NC(=O)c1cccc(C(=O)NC(C)(C)CCl)n1              TGI   > 100 µM
10  COC(=O)c1sc2c(=O)c(C(=O)OC)c(C(=O)OC)sc2c(=O)c1C(=O)OC              TGI   > 100 µM
11  COc1ccc(C[C@]23CCC(=O)N2CCc2cc(OC)c(O)cc23)cc1O              TGI   > 100 µM
12  C/C(CC(C)(C)N1CC1)=N\NC(=O)Nc1cccc2ccccc12              TGI      10 µM
13  O=C(Nc1cccc(C(F)(F)F)c1)c1ccc(NC2=C(Cl)C(=O)N(Cc3ccccc3)C2=O)cc1              TGI      57 µM
14  FC(F)(F)c1cc(NC(=S)N2c3ccccc3-n3cccc3C2c2cccnc2)cc(C(F)(F)F)c1 (stereo not drawn)              TGI    23.4 µM
15  O=[N+]([O-])c1cccc(C2=NN(c3ccccc3)C3c4ccccc4OCC23)c1 (stereo not drawn)              TGI   > 100 µM
16  CO/N=C(/C(=O)Nc1c[n+](CC(=O)[O-])cs1)c1csc(N)n1              TGI   > 100 µM
17  O=C(c1ccccc1)C1OC1C(=O)c1ccccc1 (stereo not drawn)              TGI   > 100 µM
18  CC1(C)CCc2c(c(N=Nc3ccccc3F)c3ccccc3c2O)O1              TGI   > 100 µM
19  COc1nc2ccc(CNc3ccc(C(=O)NC(CCC(=O)O)C(=O)O)cc3)cc2nc1OC (stereo not drawn)              TGI   > 100 µM
20  C1=CCC[C@@H]2CN3CCCC/C=C\CCCC[C@H]4C[C@H](CN(CCCCCCCC1)C4)[C@H]2CC3              TGI    18.7 µM
21  CC1(C)N=c2cc3c(cc2N1c1ccc(Cl)cc1)=Nc1ccccc1N3c1ccc(Cl)cc1              TGI   > 100 µM
22  C[C@]12CCc3nonc3C1CC[C@@H]1C2CC[C@@]2(C)C1CC[C@@H]2O (stereo partly drawn)              TGI   > 100 µM
23  COc1cc2c3c(n(CCCn4cncn4)c(=O)c2cc1OC)-c1cc2c(cc1C3=O)OCO2              TGI   > 100 µM
24                                O=C1CCCCN1              TGI  > 1120 µM
25  Nc1nc(SCCNC(=O)CCc2ccc(O)c(I)c2)nc2c1ncn2C1OC(CO)C(O)C1O (stereo not drawn)              TGI   > 100 µM
26  N#Cc1sc2c(c1OC(=O)c1ccc(Cl)cc1Cl)c(=O)n(-c1ccccc1)c(=S)n2-c1ccccc1              TGI   > 100 µM
27      O=C1OC(c2ccc(Cl)cc2)=N/C1=C\c1ccccc1              TGI   > 100 µM
28  NNC(=O)CC(=O)Nc1ccc(S(=O)(=O)c2ccc(NC(=O)CC(=O)NN)cc2)cc1              TGI   > 100 µM
29           Cc1cc2c(=O)c(C)n[nH]c2c(C#N)c1C              TGI   > 100 µM
30  CSc1nc(NC2OCC(OC(C)=O)C(OC(C)=O)C2OC(C)=O)c2c(n1)OCC2=O (stereo not drawn)              TGI   > 100 µM
31  COc1ccc(/C=C2/SC(=Nc3ccccc3)N(NC(=O)Cc3ccccc3)C2=O)c(OC)c1              TGI   > 100 µM
32          O=C(O)/C=C/c1ccc(OS(=O)(=O)O)cc1              TGI   > 100 µM
33  COc1ccc(C(=O)c2nc3ccccc3nc2N2CCN(c3ccccc3)CC2)cc1OC              TGI   > 100 µM
34  COc1ccc(-c2cc(=O)c3cc(C)c(C)c(C(=O)O)c3o2)cc1              TGI   > 100 µM
35         CNS(=O)(=O)NNS(=O)(=O)c1ccc(F)cc1              TGI   > 100 µM
36  O=C1/C(=C/C=C/c2ccccc2)N=C(c2ccccc2)N1c1ccc(S(=O)(=O)Nc2nccs2)cc1              TGI   > 100 µM
37  O=C(O)CN1C(=O)CN=C(c2ccccn2)c2cc(Cl)ccc21              TGI   > 100 µM
38                          C=CCCCN1CCCCC1=S              TGI   > 100 µM
39  COC(=O)N/N=C(\C)CC(=O)Nc1cccc([N+](=O)[O-])c1              TGI   > 100 µM
40                Cc1oc2nc(N(C)C)nc(NN)c2c1C              TGI   > 100 µM
41  C=CCc1cccc2cc(C(=O)Nc3ccc(C)cc3)c(=N)oc12              TGI   > 100 µM
42  CN1N=C2c3ccccc3OC(c3ccccc3)[C@H]2C1c1ccccc1 (stereo partly drawn)              TGI   > 100 µM
43  CC[C@@H]1CSC(/C=C/C2OC3OC(C)(C)OC3C3OC(C)(C)OC23)=N1 (stereo partly drawn)              TGI    61.2 µM
